assay_details: Solubility measurement (DMSO solution method), McIlvaine buffer pH 4.5 or 6.8
Assay type: physicochemical
test_context: aqueous buffer, kinetic from dmso stock; McIlvaine buffer pH 6.8; DMSO stock diluted to 250 μM; 24 h shaking at ambient temperature; read-out: solubility pH 6.8
Protocol: The DMSO solution is diluted with an aqueous medium (Mcllvaine buffer with pH=4.5 or 6.8) to a final concentration of 250 μM. After 24 h of shaking at ambient temperature a potentially formed precipitate is removed by filtration. The concentration of the test compound in the filtrate is determined by LC-UV methods by calibrating the signal to the signal of a reference solution with complete dissolution of the test compound in acetonitrile/water (1:1) with known concentration.
Provide the reported solubility at 24 h of each item.

Reported solubility at 24 h of C[C@H]1CNCCCN1c1cc(-n2ccnc2)nc(-c2noc3c2CCC[C@@]32CCCc3sc(N)c(C#N)c32)n1 : 10 µg/mL

Reported solubility at 24 h of C[C@H](Oc1nc(-c2noc3c2CCC[C@@]32CCCc3sc(N)c(C#N)c32)nc(N2CCN(C)C3(CC3)C2)c1Cl)[C@@H]1C[C@@H](F)CN1C : < 1 µg/mL

Reported solubility at 24 h of C[C@H](Oc1cc(N2CC[C@@H](N(C)C)C2)nc(-c2noc3c2CCC[C@@]32CCCc3sc(N)c(C#N)c32)n1)[C@@H]1CCCN1C : > 145 µg/mL

Reported solubility at 24 h of C[C@H](Oc1cc(N2CCOC3(COC3)C2)nc(-c2noc3c2CCC[C@@]32CCCc3sc(N)c(C#N)c32)n1)[C@@H]1CCCN1C : > 134 µg/mL

Reported solubility at 24 h of C[C@H](NC(=O)c1ccn(-c2cc(O[C@@H](C)[C@@H]3CCCN3C)nc(-c3onc4c3CCC[C@@]43CCCc4sc(N)c(C#N)c43)n2)n1)c1ccccn1 : 15 µg/mL

Reported solubility at 24 h of [2H]C([2H])([2H])N1C[C@H](F)C[C@H]1[C@H](C)Oc1cc(N2CCN(C([2H])([2H])[2H])C3(CC3)C2)nc(-c2noc3c2CCC[C@@]32CCCc3sc(N)c(C#N)c32)n1 : < 1 µg/mL

Reported solubility at 24 h of C[C@H](Oc1cc(-c2ccn(C)n2)nc(-c2noc3c2CCC[C@@]32CCCc3sc(N)c(C#N)c32)n1)[C@@H]1C[C@H](F)CN1C : < 1 µg/mL

Reported solubility at 24 h of C[C@H]1CNCCCN1c1nc(-c2onc3c2CCC[C@@]32CCCc3sc(N)c(C#N)c32)cc(C(F)(F)F)n1 : < 1 µg/mL

Reported solubility at 24 h of CO[C@@H]1C[C@@H]([C@H](C)Oc2cc(-c3ccn(C)n3)nc(-c3onc4c3CCC[C@@]43CCCc4sc(N)c(C#N)c43)n2)N(C)C1 : < 1 µg/mL

###

assay_details: Solubility measurement (DMSO solution method), McIlvaine buffer pH 4.5 or 6.8
Assay type: physicochemical
test_context: aqueous buffer, kinetic from dmso stock; McIlvaine buffer pH 4.5; DMSO stock diluted to 250 μM; 24 h shaking at ambient temperature; read-out: solubility pH 4.5
outcome_measure: solubility at 24 h

Reported solubility at 24 h of C[C@H](Oc1cc(-n2nccn2)nc(-c2onc3c2CCC[C@@]32CCCc3sc(N)c(C#N)c32)n1)[C@@H]1CCCN1C : > 114 µg/mL

Reported solubility at 24 h of C[C@H](Oc1cc(-c2ccn(C[C@@H]3CCCO3)n2)nc(-c2noc3c2CCC[C@@]32CCCc3sc(N)c(C#N)c32)n1)[C@@H]1CCCN1C : 121 µg/mL

Reported solubility at 24 h of C[C@H](Oc1cc(-n2cncn2)nc(-c2onc3c2CCC[C@@]32CCCc3sc(N)c(C#N)c32)n1)[C@@H]1CCCN1C : > 121 µg/mL
